Listed molecules paired with reported GI50
Test system: BT-549
Test: NCI tumour cell line growth inhibition, 48 h
Activity calls are given as the source filed them. No stated cut-off is given here; in the data, active = GI50 up to about 1.1 µM and inactive = higher.

Nc1nc2cc(Cl)ccc2n1N | 45.5 µM (inactive)
O=c1[nH]cc(/C=N\Nc2ccccc2)c(=O)[nH]1 | > 100 µM (inactive)

query: Param readout = GI50; param system = BT-549; param query = O=c1[nH]c2cc(C(F)(F)F)ccc2nc1C(F)(F)F ; response: value
result: 44.2 µM (inactive)

query: Param readout = GI50; param system = BT-549; param query = O=C(O)c1ccccc1-c1ccccc1C(=O)Nc1ccc2c(c1)Cc1cc(F)ccc1-2 ; response: value
result: 18.9 µM (inactive)

query: Param readout = GI50; param system = BT-549; param query = COc1ccc2nc(-c3ccc(O)cc3)cn2c1 ; response: value
result: > 100 µM (inactive)

query: Param readout = GI50; param system = BT-549; param query = COC(=O)c1c(O)ccc2c1c1c(n2Cc2ccccn2)C(=O)c2ccccc2C1=O ; response: value
result: > 100 µM (inactive)

query: Param readout = GI50; param system = BT-549; param query = CCOC(=O)c1nc2ccc(C(F)(F)F)cc2nc1NCc1ccc(Cl)c(Cl)c1 ; response: value
result: 37 µM (inactive)

query: Param readout = GI50; param system = BT-549; param query = CN(Cc1ccccc1)c1cc(=O)n(C)c(=O)[nH]1 ; response: value
result: > 100 µM (inactive)

query: Param readout = GI50; param system = BT-549; param query = CCOC(=O)C(Cc1cn(S(=O)(=O)c2ccc(C)cc2)cn1)P(=O)(OCC)OCC (configuration not stated) ; response: value
result: > 100 µM (inactive)

query: Param readout = GI50; param system = BT-549; param query = CCOC(=O)/C(C(N)=O)=C(O)/C(O)=C/C(=O)c1ccc(Cl)cc1 ; response: value
result: 18 µM (inactive)

query: Param readout = GI50; param system = BT-549; param query = CN(C)C(=S)SCC(N)=O ; response: value
result: > 100 µM (inactive)

query: Param readout = GI50; param system = BT-549; param query = CCc1nc(N)nc(N)c1-c1ccc(Cl)c(Cl)c1 [ETOPRINE] ; response: value
result: 51.3 µM (inactive)
